METHOD_DESCRIPTION: A CellTox Green Cytotoxicity Assay to monitor cytotoxicity in HepG2 cells - 40 hour (AID 1224879); note: nearly all actives have a fitted effect of over 40% in size
MEASUREMENT_SETUP: CellTox Green fluorescence; series mostly up to 76.8 µM
Results filed as inconclusive are left out. Activity calls are given as the source filed them. Calls come from the whole dose curve; as a rule, active = well fitted activation curve with a large enough effect in the repeat runs; inconclusive = weak or mixed curves; inactive = flat fitted curve, though single readings scatter.
TEST_READOUT: cytotoxicity increase

CO[Si](CCCS)(OC)OC    inactive
NC(=O)C1(N2CCCCC2)CCN(CCCC(=O)c2ccc(F)cc2)CC1    inactive
Cc1ccc(C(=O)C(=O)O)cc1C    inactive
CN=C(NC#N)NCCSCc1csc(N=C(N)N)n1    inactive
Cc1cc(O)c2c(c1)C(=O)c1cccc(O)c1C2=O    inactive
CCC1Nc2cc(Cl)c(S(N)(=O)=O)cc2S(=O)(=O)N1 (stereo unspecified)    inactive
O=[Si]=O    inactive
CC1=NN(c2ccc(S(=O)(=O)O)cc2)C(=O)C1N=Nc1ccccc1 (stereo unspecified)    inactive

Here are 7 compounds. What values of cytotoxicity increase were reported for them?
1. COCCOCCOCCOC
2. CC(C)COC(=O)CCCCC(=O)OCC(C)C
3. CC(C)(c1ccc(Oc2ccc3c(c2)C(=O)OC3=O)cc1)c1ccc(Oc2ccc3c(c2)C(=O)OC3=O)cc1
4. CC(=O)OCCCc1ccccc1
5. CC(C)CCCC(C)CC=O (stereo unspecified)
6. C=COCCOCCOC=C
7. COCC(=O)Nc1c(I)c(C(=O)NCC(O)CO)c(I)c(C(=O)N(C)CC(O)CO)c1I (stereo unspecified)

Solution:
1: inactive; 2: inactive; 3: inactive; 4: inactive; 5: inactive; 6: inactive; 7: inactive

* * *

METHOD_DESCRIPTION: qHTS assay to identify small molecule antagonists of the farnesoid-X-receptor (FXR) signaling pathway - cell viability counter screen (AID 743221); note: nearly all actives have a fitted effect of over 50% in size
MEASUREMENT_SETUP: FXR-bla HEK293T viability, CellTiter-Glo luminescence, 16 h; series mostly up to 62.6 µM
Inconclusive results are not listed. The source made the active and inactive calls. Calls come from the whole dose curve; as a rule, active = well fitted cell-killing curve with a large enough effect in the repeat runs (not every such curve was filed as active); inconclusive = weak or mixed curves, or effect the other way; inactive = no such curve, though single readings can be large or run the other way.
TEST_READOUT: activity change, negative = cytotoxicity

Some solved cases for reference:
COc1cc2c3cc1Oc1cc(ccc1O)C[C@@H]1c4c(cc(OC)c(O)c4Oc4ccc(cc4)C[C@@H]3N(C)CC2)CC[N+]1(C)C    inactive
O=C(O)C(=O)Nc1cccc(-c2nn[nH]n2)c1    inactive
Cc1ccc2c(c1)c1c3n2CCNC3CCC1 (stereo unspecified)    inactive
CC(=O)Nc1ccc(C)cc1    inactive
Cc1cccc(Nc2ccncc2S(=O)(=O)NC(=O)NC(C)C)c1    inactive

We next turn to a different molecule, shown below.
Exercise: Could you share which activity change, negative = cytotoxicity value was measured for `COc1cc(C=O)ccc1OC(=O)C(C)C` ?
Solution: inactive

* * *

METHOD_DESCRIPTION: qHTS assay for small molecules that induce genotoxicity in human embryonic kidney cells expressing luciferase-tagged ATAD5 - cell viability (AID 651634); note: nearly all actives have a fitted effect of over 25% in size
MEASUREMENT_SETUP: HEK293T ATAD5-luc cells viability, CellTiter-Fluor, 15.5 h; series mostly up to 83.3 µM
Text: National Center for Advancing Translational Sciences [NCATS] NIH Chemical Genomics Center [NCGC] U.S. Environmental Protection Agency [EPA] National Institutes of Environmental Health Sciences [NIEHS] National Toxicology Program [NTP] U.S. Food and Drug Administration [FDA] Enhanced Level of Genome Instability Gene 1 (ELG1; human ATAD5) protein levels increase in response to various types of DNA damage. […]
Results filed as inconclusive are left out. Calls of active or inactive are those of the source. Calls come from the whole dose curve.
TEST_READOUT: outcome

Some solved cases for reference:
C=CCOCC(O)CCl (centres undefined)    inactive
COc1ccc(N=Nc2cc(C)c(N=Nc3ccc(S(=O)(=O)O)cc3)cc2OC)cc1    inactive
NCCc1ccn[nH]1    inactive
CCCCC(CC)C(=O)OC(C)C (centres undefined)    inactive
COC(OC)C(C)c1ccccc1 (centres undefined)    inactive
C=CCOCC(CO)(COCC=C)COCC=C    inactive
CC(C)COC(=O)COc1ccc(Cl)cc1Cl    inactive
CNCc1ccccc1    inactive
CO[Si](CCCCl)(OC)OC    inactive
N#CCCOCCOCCC#N    inactive

Here are 8 molecules. What values of outcome were reported for them?
1. CCCCCCCCC(=O)OCC
2. C=C(C)C(=O)OC1CC(C)CC(C)(C)C1 (centres undefined)
3. Cc1cccc(NC(=S)N(C)C)c1
4. O=C(O)C(=O)Nc1cccc(-c2nn[nH]n2)c1
5. O=C(Oc1ccccc1C(=O)O)c1ccccc1O
6. Cc1cccc(Nc2ccncc2S(=O)(=O)NC(=O)NC(C)C)c1
7. C[Si]1(C)N[Si](C)(C)N[Si](C)(C)N1
8. CC(CC(=O)O)CC(C)(C)C (centres undefined)

Solution:
1. inactive
2. inactive
3. inactive
4. inactive
5. inactive
6. inactive
7. inactive
8. inactive

* * *

TESTED_TARGET: Progesterone receptor (Homo sapiens) (UniProt P06401)
Sequence (P06401 whole entry, looked up): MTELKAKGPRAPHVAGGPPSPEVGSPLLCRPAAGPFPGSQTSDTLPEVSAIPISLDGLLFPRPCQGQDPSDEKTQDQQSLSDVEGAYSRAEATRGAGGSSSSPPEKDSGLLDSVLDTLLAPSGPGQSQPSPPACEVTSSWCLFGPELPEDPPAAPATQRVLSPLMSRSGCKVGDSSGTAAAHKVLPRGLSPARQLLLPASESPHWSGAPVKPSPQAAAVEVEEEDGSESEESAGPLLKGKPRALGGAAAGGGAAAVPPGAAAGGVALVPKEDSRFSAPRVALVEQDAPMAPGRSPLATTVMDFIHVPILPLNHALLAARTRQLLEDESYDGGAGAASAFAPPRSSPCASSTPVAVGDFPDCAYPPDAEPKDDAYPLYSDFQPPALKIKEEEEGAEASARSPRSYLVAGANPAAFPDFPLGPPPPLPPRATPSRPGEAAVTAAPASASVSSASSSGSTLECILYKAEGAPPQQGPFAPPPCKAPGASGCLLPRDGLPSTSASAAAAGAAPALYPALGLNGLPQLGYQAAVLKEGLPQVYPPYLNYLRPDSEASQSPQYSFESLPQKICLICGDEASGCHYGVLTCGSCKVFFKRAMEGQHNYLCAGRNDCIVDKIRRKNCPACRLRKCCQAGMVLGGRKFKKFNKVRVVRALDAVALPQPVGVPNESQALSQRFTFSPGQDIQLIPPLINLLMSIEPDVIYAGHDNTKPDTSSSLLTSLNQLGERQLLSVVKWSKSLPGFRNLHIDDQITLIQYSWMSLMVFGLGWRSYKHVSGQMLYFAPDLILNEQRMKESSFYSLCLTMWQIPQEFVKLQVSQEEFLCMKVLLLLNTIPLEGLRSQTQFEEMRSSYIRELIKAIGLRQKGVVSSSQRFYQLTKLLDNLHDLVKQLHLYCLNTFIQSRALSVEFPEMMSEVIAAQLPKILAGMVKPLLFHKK
METHOD_DESCRIPTION: qHTS assay to identify small molecule agonists of the progesterone receptor (PR) signaling pathway (AID 1346784); note: nearly all actives have a fitted effect of over 30% in size
MEASUREMENT_SETUP: PR-UAS-bla HEK293T, beta-lactamase FRET ratio, 16 h; series mostly up to 92.4 µM
Results filed as inconclusive are left out. Activity calls are given as the source filed them. Calls come from the whole dose curve.
// classify into 1 (yes) = active, 0 (no) = inactive

Cc1nc(C)nc(N2C[C@@H](C)N(c3ccnc([C@@H](C)O)n3)[C@@H](C)C2)n1    0 (no)
CC(C)C(=O)Nc1cccc(C(F)(F)F)c1    0 (no)
O=CN1CCOCC1    0 (no)
CC(=O)Nc1ccc(C)cc1    0 (no)
CCOC(=O)CC(CC(=O)OCC)(OC(C)=O)C(=O)OCC    0 (no)

Exercise: Name the outcome recorded for `CC(=O)OCC(=O)[C@@]1(O)[C@H](OC(C)=O)C[C@H]2[C@@H]3CCC4=CC(=O)C=C[C@]4(C)[C@@]3(F)[C@@H](O)C[C@@]21C` in the assay.
Solution: 0 (no)

* * *

METHOD_DESCRIPTION: Caspase-3/7 induction in CHO-K1 cells by small molecules, qHTS assay (AID 1346980); note: nearly all actives have a fitted effect of over 15% in size
MEASUREMENT_SETUP: CHO-K1 caspase-3/7 induction, Caspase-Glo luminescence, 17 h; series mostly up to 92.4 µM
Active and inactive are the calls of the source. Calls come from the whole dose curve; as a rule, active = well fitted activation curve with a large enough effect in the repeat runs; inconclusive = weak or mixed curves; inactive = flat fitted curve, though single readings scatter.
TEST_READOUT: caspase-3/7 activation

Some solved cases for reference:
c1ccc(CNc2ncnc3nc[nH]c23)cc1    inactive
CCCCCCCC[Si](OCC)(OCC)OCC    inactive
CCC(C)N (centres undefined)    inactive
CCCCC(CC)C(=O)OC(C)C (centres undefined)    inactive
O=P(O)(O)OCC(O)CO (centres undefined)    inactive

Here are 3 compounds. What values of caspase-3/7 activation were reported for them?
1. Cc1cccc(NC(=S)N(C)C)c1
2. C1=C\CC/C=C\CC/1
3. O=C(O)c1ccccc1C(=O)OCc1ccccc1

Solution:
1: inactive; 2: inactive; 3: inactive

Here are 6 compounds. What values of caspase-3/7 activation were reported for them?
1. CCOC(=O)CC#N
2. CCCCCCCC/C=C\CCCCCCCC(=O)OC[C@@H](O)[C@H]1OC[C@H](O)[C@H]1O
3. O=C(c1ccc2c(c1)C(=O)OC2=O)c1ccc2c(c1)C(=O)OC2=O
4. C=CCOC(=O)c1ccc(C(=O)OCC=C)c(C(=O)OCC=C)c1
5. CO[Si](CCCCl)(OC)OC
6. O=C(/C=C/c1ccccc1)NCCO

Solution:
inactive
inactive
inactive
inactive
inactive
inactive

* * *

TESTED_TARGET: Cytochrome P450 2C19 (Homo sapiens)
METHOD_DESCRIPTION: Cytochrome P450 Family 2 Subfamily C Member 19 (CYP2C19) small molecule antagonists: luciferase reporter qHTS assay (AID 1671197); note: nearly all actives have a fitted effect of over 65% in size
MEASUREMENT_SETUP: P450-Glo CYP2C19 enzyme, luciferin luminescence, 1 h; series mostly up to 115 µM
Excerpt: National Center for Advancing Translational Sciences [NCATS] U.S. Environmental Protection Agency [EPA] National Institutes of Environmental Health Sciences [NIEHS] National Toxicology Program [NTP] U.S. Food and Drug Administration [FDA] Cytochrome P450 (CYP) enzymes are membrane-bound hemeproteins that play a key role in metabolism of drugs and xenobiotics. […] The luciferin products formed are detected with a luciferin detection reagent, and the amount of light produced is proportional to CYP activity. […]
Inconclusive results are not listed. Activity calls are given as the source filed them. Calls follow the shape of the dose curve; as a rule, active = well fitted inhibition curve with a large enough effect in the repeat runs; inconclusive = weak or mixed curves; inactive = no such curve, though single readings can be large or run the other way.
// classify into active, inactive

CC1CCC(C(C)(C)S)C(=O)C1 (stereo unspecified)    active
O=S1(=O)CCCC1    inactive
Cc1ccc(C(=O)C(=O)O)cc1C    inactive
CC(=O)OCC(=O)[C@@]1(O)[C@H](OC(C)=O)C[C@H]2[C@@H]3CCC4=CC(=O)C=C[C@]4(C)[C@@]3(F)[C@@H](O)C[C@@]21C    inactive
Oc1ccccc1Cc1ccccc1O    active

Exercise: Name the outcome recorded for Cc1oc(=O)oc1CN1CCN(c2cc3c(cc2F)c(=O)c(C(=O)O)c2n3C(C)S2)CC1 (stereo unspecified) in the assay.
Solution: inactive
